target: hepsin (Homo sapiens); construct: purchased R&D Systems 4776-SE-010; assay: Fluorogenic kinetic enzyme inhibitor assay, hepsin; assay type: biochemical; conditions: 30 min incubation, Boc-QAR-AMC at Km; read-out: Hepsin IC50
Property: IC50; scope: individual molecules

See these solved cases before continuing.
# MOLECULE, IC50
data = [
    ("CSCC[C@@H]1NC(=O)[C@@H](NC(C)=O)CC(=O)NCCCC[C@@H](C(=O)N[C@@H](CCCNC(=N)N)C(=O)c2nc3ccccc3s2)NC1=O [VD3173]", "5.9 nM"),
    ("CC(=O)N[C@H]1Cc2ccc(cc2)OC/C=C\\CNC(=O)C[C@@H](C(=O)N[C@@H](CCCNC(=N)N)C(=O)c2nc3ccccc3s2)NC(=O)[C@H](CC(C)C)NC1=O [VD4054]", "0.99 nM"),
    ("CC(=O)N[C@H]1Cc2cccc(c2)Oc2ccc(cc2)C[C@@H](C(=O)N[C@@H](CCCNC(=N)N)C(=O)c2nc3ccccc3s2)NC(=O)[C@H](CC(C)C)NC1=O [VD5123B]", "36.9 nM"),
]

Report IC50, nothing else, for this molecule: CC(=O)N[C@H]1CCCCn2cc(nn2)C[C@H](C(=O)N[C@@H](CCCNC(=N)N)C(=O)c2nc3ccccc3s2)NC(=O)[C@H](CC(C)C)NC1=O [VD4118B] 137 nM

Return IC50 for the following molecule: CC(=O)N[C@H]1Cc2ccc(cc2)OCCCC[C@@H](C(=O)N[C@@H](CCCNC(=N)N)C(=O)c2nc3ccccc3s2)NC(=O)[C@@H](Cc2c[nH]c3ccccc23)NC1=O [VD4162B] 0.538 nM

----------
target: UniProtKB O15393; assay: Fluorogenic kinetic enzyme inhibitor assay, TMPRSS2; type: biochemical; parameters: purchased Cusabio Technology CSB-YP023924HU; conditions: read-out: TMPRSS2 IC50
Sequence (O15393 106-492 limits assumed): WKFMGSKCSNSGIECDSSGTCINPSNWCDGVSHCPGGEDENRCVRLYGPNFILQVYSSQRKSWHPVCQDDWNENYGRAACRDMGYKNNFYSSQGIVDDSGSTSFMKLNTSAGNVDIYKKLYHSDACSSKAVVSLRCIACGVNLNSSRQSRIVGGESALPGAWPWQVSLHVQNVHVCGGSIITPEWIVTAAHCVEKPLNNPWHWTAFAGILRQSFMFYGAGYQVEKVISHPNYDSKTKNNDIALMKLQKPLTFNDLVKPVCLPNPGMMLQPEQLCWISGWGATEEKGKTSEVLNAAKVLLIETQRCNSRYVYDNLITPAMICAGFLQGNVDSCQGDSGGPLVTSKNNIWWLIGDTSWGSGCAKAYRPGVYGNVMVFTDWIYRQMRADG
MEASURED_PROPERTY: pIC50
// pIC50 here means minus log10 of the molar concentration (mol/L)

# MOLECULE, pIC50
data = [
    ("CCC(C)[C@H](NC(C)=O)C(=O)N[C@@H](CCSC)C(=O)N[C@@H](Cc1ccccc1)C(=O)N[C@@H](CCCNC(=N)N)C(=O)c1nc2ccccc2s1 (some centres unmarked)", 8.53),
]

Fetch value of pIC50 on UniProtKB O15393 for `N=C(N)NCCC[C@@H](NC(=O)[C@H](Cc1ccccc1)NC(=O)[C@H](CCC(N)=O)NCc1ccccc1)C(=O)c1nc2ccccc2s1` . 8.63

Please tell me the measured pIC50 for CCC(C)[C@H](NC(C)=O)C(=O)N[C@@H](CCC(N)=O)C(=O)N[C@@H](Cc1ccccc1)C(=O)N[C@@H](CCCNC(=N)N)C(=O)c1nc2ccccc2s1 (some centres unmarked) ; system: UniProtKB O15393. 8.76

Recall the reported pIC50 of `CC(=O)N[C@@H](CO)C(=O)NCc1ccc(C(=O)N[C@@H](CC(C)C)C(=O)N[C@@H](CCCNC(=N)N)C(=O)c2nc3ccccc3s2)cc1` when tested on UniProtKB O15393. 10.17

----------
target: hepsin (Homo sapiens, UniProt P05981); construct: purchased R&D Systems 4776-SE-010; assay: Fluorogenic kinetic enzyme inhibitor assay, hepsin; assay type: biochemical; details: read-out: Hepsin IC50
Sequence (P05981 163-417 limits assumed): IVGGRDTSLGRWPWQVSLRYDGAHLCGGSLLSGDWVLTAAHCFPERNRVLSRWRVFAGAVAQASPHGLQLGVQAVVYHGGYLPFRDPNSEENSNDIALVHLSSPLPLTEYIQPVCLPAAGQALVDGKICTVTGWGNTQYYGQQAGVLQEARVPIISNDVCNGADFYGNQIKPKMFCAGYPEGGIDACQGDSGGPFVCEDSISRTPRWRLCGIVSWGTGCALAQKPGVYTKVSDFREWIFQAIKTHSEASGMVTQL
Sequence (P05981 1-162 partner limits assumed): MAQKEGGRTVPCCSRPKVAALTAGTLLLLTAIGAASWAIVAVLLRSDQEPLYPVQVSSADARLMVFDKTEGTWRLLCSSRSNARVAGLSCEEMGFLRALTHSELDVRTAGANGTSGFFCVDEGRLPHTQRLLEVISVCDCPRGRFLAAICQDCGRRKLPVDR
Listed next: entries and their corresponding IC50.

# COMPOUND, RESULT
records = [
    ("N=C(N)NCCC[C@H](NC(=O)[C@H](Cc1ccccc1)NC(=O)[C@H](CCC(N)=O)NC(=O)c1ccccc1)C(=O)c1nc2ccccc2s1", "0.11 nM"),
    ("CCC(C)[C@H](NC(C)=O)C(=O)N[C@@H](CCC(=O)O)C(=O)N[C@@H](Cc1ccccc1)C(=O)N[C@@H](CCCNC(=N)N)C(=O)c1nc2ccccc2s1 (stereo partly drawn)", "0.35 nM"),
]

The record that follows has no IC50 shown yet.
Specify IC50 for `N=C(N)NCCC[C@H](NC(=O)[C@H](Cc1ccccc1)NC(=O)[C@H](CCC(N)=O)NCCc1ccccc1)C(=O)c1nc2ccccc2s1` and stop. 0.3 nM
